Reported values of pKi for individual entries
- study target: MMP-2 (Gel-A) (Homo sapiens)
- Sequence (P08253 110-660): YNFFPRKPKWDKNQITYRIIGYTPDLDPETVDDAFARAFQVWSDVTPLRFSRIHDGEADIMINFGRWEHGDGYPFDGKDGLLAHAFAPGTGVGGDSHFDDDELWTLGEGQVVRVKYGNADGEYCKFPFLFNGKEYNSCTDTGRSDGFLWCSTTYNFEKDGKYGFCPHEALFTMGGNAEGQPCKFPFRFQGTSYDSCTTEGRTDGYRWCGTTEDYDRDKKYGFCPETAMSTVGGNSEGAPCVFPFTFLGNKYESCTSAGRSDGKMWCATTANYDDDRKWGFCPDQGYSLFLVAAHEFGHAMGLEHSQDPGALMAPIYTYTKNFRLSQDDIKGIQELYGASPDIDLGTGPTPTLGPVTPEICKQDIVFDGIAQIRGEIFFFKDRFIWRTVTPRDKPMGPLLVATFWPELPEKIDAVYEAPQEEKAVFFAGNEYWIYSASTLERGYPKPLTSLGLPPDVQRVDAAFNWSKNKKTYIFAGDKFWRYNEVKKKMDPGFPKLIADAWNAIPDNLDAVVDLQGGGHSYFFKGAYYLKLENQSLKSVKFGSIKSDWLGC
- procedure text: Ki determination with fluorogenic synthetic substrates, recombinant MMP-2
- setup conditions: Tris/50 mM HCl buffer, pH 6.8, 10 mM CaCl2, 25° C.; read-out: affinity constant Ki, MMP-2 Gel-A
- Protocol: The MMPs used were produced in recombinant form, in an E. coli expression system, and then purified using different types of chromatographies. Apart from stromelysin-3 (MMP-11), the MMPs produces correspond to human sequences. […] The activity of each MMP was determined using two fluorogenic synthetic substrates. The cutoff of said substrates, which generates a fluorescent signal proportional to the quantity of split substrate, enables a precise determination of the kinetic parameters. […]
By convention, pKi is the negative base-10 log of a molar concentration.

For orientation, consider the following solved cases.
| molecule | pKi |
| --- | --- |
| CC(NC(=O)OCc1ccccc1)P(=O)(O)CC(CSCc1ccccc1)C(=O)NC(Cc1c[nH]c2ccccc12)C(N)=O (stereo not drawn) | 7.85 |
| COc1ccc(CSCC(CP(=O)(O)C(Cc2ccccc2)NC(=O)OCc2ccccc2)C(=O)NC(Cc2c[nH]c3ccccc23)C(N)=O)cc1 (stereo not drawn) | 8.22 |

Below: the item to evaluate.
Query block: Give the value of pKi reported for the following: NC(=O)C(Cc1c[nH]c2ccccc12)NC(=O)C(CCCc1ccccc1)CP(=O)(O)C(Cc1ccccc1)NC(=O)c1cc2cc(Cl)cc(Cl)c2oc1=O (stereo not drawn)
Result block: 7.00

###

- study target: MMP-8 (HNC) (Homo sapiens)
- Sequence (P22894 101-467): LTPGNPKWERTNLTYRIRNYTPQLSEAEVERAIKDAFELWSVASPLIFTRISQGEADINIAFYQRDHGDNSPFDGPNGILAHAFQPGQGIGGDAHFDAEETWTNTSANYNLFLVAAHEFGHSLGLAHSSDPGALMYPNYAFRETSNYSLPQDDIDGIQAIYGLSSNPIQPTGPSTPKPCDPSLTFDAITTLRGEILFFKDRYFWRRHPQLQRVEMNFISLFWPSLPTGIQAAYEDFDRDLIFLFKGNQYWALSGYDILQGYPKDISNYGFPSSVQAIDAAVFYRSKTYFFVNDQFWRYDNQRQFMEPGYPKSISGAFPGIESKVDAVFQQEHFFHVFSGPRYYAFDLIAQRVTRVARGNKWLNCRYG
- procedure text: Ki determination with fluorogenic synthetic substrates, recombinant MMP-8
- setup conditions: Tris/50 mM HCl buffer, pH 6.8, 10 mM CaCl2, 25° C.; read-out: affinity constant Ki, MMP-8 HNC
Field: label. Allowed values: 1 (Ki < 20 nM) or 0 (Ki >= 20 nM).

Worked cases, answers included:
| molecule | qualitative label |
| --- | --- |
| NC(=O)C(Cc1c[nH]c2ccccc12)NC(=O)C(CCCc1ccccc1)CP(=O)(O)C(Cc1ccccc1)NC(=O)OCc1ccccc1 (single isomer, unassigned) [Compound 15 S II] | 0 |
| CC(NC(=O)C(CCCc1ccccc1)CP(=O)(O)C(Cc1ccccc1)NC(=O)OCc1ccccc1)C(N)=O (stereo not drawn) [Compound 22] | 0 |
| NC(=O)C(Cc1c[nH]c2ccccc12)NC(=O)C(CCCc1ccccc1)CP(=O)(O)C(Cc1ccccc1)NC(=O)c1cc2c(Cl)cc(Cl)cc2[nH]1 (stereo not drawn) [Compound 31] | 1 |
| NC(=O)[C@H](Cc1c[nH]c2ccccc12)NC(=O)C(CCCc1ccccc1)CP(=O)(O)C(Cc1ccccc1)NC(=O)OCc1ccccc1 (mixture of isomers) [Compound 15, ZPheΨ(PO2CpH2)pPheTrpNH2] | 1 |

Query block: Input CC(NC(=O)OCc1ccccc1)P(=O)(O)CC(Cc1ccccc1)C(=O)NC(Cc1c[nH]c2ccccc12)C(N)=O (stereo not drawn) [Compound 7] ; condition: Ki strictly below 20 nM. Does it hold?
Result block: 0

###

- study target: MMP-14 (MT1-MMP) (Homo sapiens)
- procedure text: Ki determination with fluorogenic synthetic substrates, recombinant MMP-14
- setup conditions: Tris/50 mM HCl buffer, pH 6.8, 10 mM CaCl2, 25° C.; read-out: affinity constant Ki, MMP-14 MT1-MMP
- Protocol: The MMPs used were produced in recombinant form, in an E. coli expression system, and then purified using different types of chromatographies. Apart from stromelysin-3 (MMP-11), the MMPs produces correspond to human sequences. […] The activity of each MMP was determined using two fluorogenic synthetic substrates. The cutoff of said substrates, which generates a fluorescent signal proportional to the quantity of split substrate, enables a precise determination of the kinetic parameters. […]
Please assign n whenever Ki is at or above 90 nM, and y whenever it is below.

| compound | qualitative label |
| --- | --- |
| CC(C)CC(NC(=O)OCc1ccccc1)C(=O)NC(Cc1ccccc1)P(=O)(O)CC(CCCc1ccccc1)C(=O)NC(Cc1c[nH]c2ccccc12)C(N)=O (stereo not drawn) | y |
| NC(=O)C(Cc1c[nH]c2ccccc12)NC(=O)C(CCCCc1ccccc1)CP(=O)(O)C(Cc1ccccc1)NC(=O)OCc1ccccc1 (stereo not drawn) | n |
| CC(NC(=O)OCc1ccccc1)P(=O)(O)CC(Cc1ccccc1)C(=O)NC(Cc1c[nH]c2ccccc12)C(N)=O (stereo not drawn) | n |
| NC(=O)[C@H](Cc1c[nH]c2ccccc12)NC(=O)C(CCCc1ccccc1)CP(=O)(O)C(Cc1ccccc1)NC(=O)OCc1ccccc1 (mixture of isomers) | n |
| NC(=O)C(Cc1c[nH]c2ccccc12)NC(=O)C(CCCc1ccccc1)CP(=O)(O)C(Cc1ccccc1)NC(=O)OCc1ccccc1 (single isomer, unassigned) [Compound 15 R II] | n |
| NC(=O)C(Cc1c[nH]c2ccccc12)NC(=O)C(CCCc1ccccc1)CP(=O)(O)C(Cc1ccccc1)NC(=O)c1ccc2ccccc2n1 (stereo not drawn) | y |
| NC(=O)C(Cc1c[nH]c2ccccc12)NC(=O)C(CCCc1ccccc1)CP(=O)(O)C(Cc1ccccc1)NC(=O)OCc1ccccc1 (single isomer, unassigned) [Compound 15 S I] | n |
| NC(=O)C(Cc1c[nH]c2ccccc12)NC(=O)C(COCc1ccccc1)CP(=O)(O)C(Cc1ccccc1)NC(=O)OCc1ccccc1 (stereo not drawn) | n |
| CC(NC(=O)OCc1ccccc1)P(=O)(O)CC(COCc1ccccc1)C(=O)NC(Cc1c[nH]c2ccccc12)C(N)=O (stereo not drawn) | n |
| NC(=O)C(Cc1c[nH]c2ccccc12)NC(=O)C(CCCc1ccccc1)CP(=O)(O)C(Cc1ccccc1)NC(=O)CNc1cc(Cl)ccc1O (stereo not drawn) | y |

Query block: Find out if reported Ki for NC(=O)C(Cc1c[nH]c2ccccc12)NC(=O)C(CCCc1ccccc1)CP(=O)(O)C(Cc1ccccc1)NC(=O)c1cc2c(Cl)cc(Cl)cc2[nH]1 (stereo not drawn) is less than 90 nM
Result block: y

Query block: Check if Ki falls below 90 nM for NC(=O)C(Cc1c[nH]c2ccccc12)NC(=O)C(CCCc1ccccc1)CP(=O)(O)C(Cc1ccccc1)NC(=O)COCc1ccccc1 (stereo not drawn) .
Result block: y

Query block: Identify whether the compound CC(NC(=O)OCc1ccccc1)P(=O)(O)CC(CCc1ccccc1)C(=O)NC(Cc1c[nH]c2ccccc12)C(N)=O (stereo not drawn) records Ki below 90 nM.
Result block: n

Query block: Does the reported Ki of NC(=O)C(Cc1c[nH]c2ccccc12)NC(=O)C(CCCc1ccccc1)CP(=O)(O)C(Cc1ccccc1)NC(=O)OCc1ccccc1 (single isomer, unassigned) [Compound 15 S II] stay below 90 nM?
Result block: n

Query block: Please indicate whether the reported Ki of CC(NC(=O)OCc1ccccc1)C(=O)NC(Cc1ccccc1)P(=O)(O)CC(CCCc1ccccc1)C(=O)NC(Cc1c[nH]c2ccccc12)C(N)=O (stereo not drawn) is strictly below 90 nM.
Result block: y

Query block: Strictly below 90 nM: is that where Ki of CC(NC(=O)C(CCCc1ccccc1)CP(=O)(O)C(Cc1ccccc1)NC(=O)OCc1ccccc1)C(N)=O (stereo not drawn) sits?
Result block: n

Query block: Please check: Ki for CC(C)CC(CP(=O)(O)C(Cc1ccccc1)NC(=O)OCc1ccccc1)C(=O)NC(Cc1c[nH]c2ccccc12)C(N)=O (stereo not drawn) , strictly under 90 nM or not?
Result block: n

Query block: Hello, I'm reviewing records and need to know if Ki of COc1ccc(CSCC(CP(=O)(O)C(Cc2ccccc2)NC(=O)OCc2ccccc2)C(=O)NC(Cc2c[nH]c3ccccc23)C(N)=O)cc1 (stereo not drawn) is below 90 nM. Could you check?
Result block: y

Query block: hey, is Ki for NC(=O)C(Cc1c[nH]c2ccccc12)NC(=O)C(CCCc1ccccc1)CP(=O)(O)C(Cc1ccccc1)NC(=O)CNc1ccccc1 (stereo not drawn) lower than 90 nM or not?
Result block: y
